- System: uninfected MT2 cells
- PROTOCOL NOTES: Compound cytotoxicity, XTT-based colorimetric assay
- Assay type: cell-based
- CONDITION CONTEXT: Table 1a, day 4, XTT
Parameter: CC50. Scope: all listed entries.

* Cn1nc(NS(C)(=O)=O)c2c(Cl)ccc(-n3c([C@H](Cc4cc(F)cc(F)c4)NC(=O)Cn4nc(C(F)F)c5c4C(F)(F)[C@@H]4C[C@H]54)nc4cc(Cl)cc(Cl)c4c3=O)c21 (single isomer, unassigned) | > 1 µM

Okay, now this compound:
Cn1nc(NS(C)(=O)=O)c2c(Cl)ccc(-n3c([C@H](Cc4cc(F)cc(F)c4)NC(=O)Cn4ccc(C5CC5)n4)nc4c(F)ccc(F)c4c3=O)c21 (single isomer, unassigned) on uninfected MT2 cells gives CC50 = > 1 µM

---

- PROTOCOL NOTES: Compound cytotoxicity, XTT-based colorimetric assay
- Type: cell-based
- CONDITION CONTEXT: human; Table 1; uninfected MT2 cells, day 4, XTT
VALUE KIND: CC50 at 4 days (µM)
Dear colleague, please return just the value in µM, with no unit written.

What the record says about C[Si](C)(C)CCOCn1ncc2nc(C(Cc3cc(F)cc(F)c3)NC(=O)Cc3c[nH]c4ccc(F)cc34)c(-c3ccc4scnc4c3)cc21 (stereo not shown) : CC50 at 4 days is 29.2

---

- PROTOCOL NOTES: Compound cytotoxicity, XTT-based colorimetric assay
- Format: cell-based
- CONDITION CONTEXT: human, uninfected MT2 cells, Table 1, day 4, XTT
VALUE KIND: CC50 at 4 days

- Cn1nc(NS(C)(=O)=O)c2c(Cl)ccc(-n3c([C@H](Cc4cc(F)cc(F)c4)NC(=O)Cn4ccc(C5CC5)n4)nc4ncccc4c3=O)c21: > 1 µM
- CC(C)c1ccc(-c2c(C(Cc3cc(F)cc(F)c3)NC(=O)Cn3nc(C(F)F)c4c3C(F)(F)[C@@H]3C[C@H]43)ncc3[nH]ncc23)cn1 (mixture of isomers): > 10 µM
- Cc1nc2nc(C(Cc3cc(F)cc(F)c3)NC(=O)Cn3nc(C(F)F)c4c3CCC4)c(-c3ccc(Cl)c4c(NS(C)(=O)=O)nn(C)c34)cc2s1 (single isomer, unassigned): > 10 µM
- Cn1nc(NS(C)(=O)=O)c2c(Cl)ccc(-c3cc4[nH]cnc4nc3C(Cc3cc(F)cc(F)c3)NC(=O)Cn3nc(C(F)F)c4c3C(F)(F)[C@@H]3C[C@H]43)c21 (single isomer, unassigned): > 10 µM
- O=C(Cn1nc(C(F)F)c2c1C(F)(F)[C@@H]1C[C@H]21)N[C@@H](Cc1cc(F)cc(F)c1)c1nc2cn[nH]c2cc1-c1ccc2ccnn2c1: > 10 µM

What the record says about N#Cc1ccc(-c2cc3[nH]ncc3nc2[C@H](Cc2cc(F)cc(F)c2)NC(=O)Cn2nc(C(F)F)c3c2C(F)(F)[C@@H]2C[C@H]32)cc1 : CC50 at 4 days is 9.35 µM

What the record says about Cn1nc(NS(C)(=O)=O)c2c(Cl)ccc(-c3cc4scnc4nc3C(Cc3cc(F)cc(F)c3)NC(=O)Cc3c[nH]c4ccc(O)cc34)c21 (centres unmarked) : CC50 at 4 days is > 100 µM

What the record says about CC1(S(=O)(=O)NC(=O)c2cc(-c3cc4[nH]ncc4nc3[C@H](Cc3cc(F)cc(F)c3)NC(=O)Cn3nc(C(F)F)c4c3C(F)(F)[C@@H]3C[C@H]43)ccc2Cl)CC1 : CC50 at 4 days is > 10 µM

What the record says about N#Cc1ccc(-c2cc3[nH]ncc3nc2[C@H](Cc2cc(F)cc(F)c2)NC(=O)Cn2nc(C(F)F)c3c2C(F)(F)[C@@H]2C[C@H]32)cc1F : CC50 at 4 days is 8.24 µM

What the record says about Cn1nc(NS(C)(=O)=O)c2c(Cl)ccc(-n3c([C@H](Cc4cc(F)cc(F)c4)NC(=O)Cn4nc(C(F)F)c5c4C(F)(F)[C@@H]4C[C@H]54)nc4ccc(F)cc4c3=O)c21 (single isomer, unassigned) : CC50 at 4 days is > 2.7 µM

What the record says about CC(C)c1ccc(-c2cc3[nH]ncc3nc2C(Cc2cc(F)cc(F)c2)NC(=O)Cn2nc(C(F)F)c3c2C(F)(F)[C@@H]2C[C@H]32)cn1 (single isomer, unassigned) : CC50 at 4 days is 9.6 µM

What the record says about Cn1nc(NS(C)(=O)=O)c2c(Cl)ccc(-c3cc4ccccc4nc3[C@H](Cc3cc(F)cc(F)c3)NC(=O)Cc3c[nH]c4ccc(O)cc34)c21 : CC50 at 4 days is > 10 µM

What the record says about Cn1nc(NS(C)(=O)=O)c2c(Cl)ccc(-n3c(C(Cc4cc(F)cc(F)c4)NC(=O)Cn4nc(C(F)F)c5c4C(F)(F)[C@@H]4C[C@H]54)nc4nc(C(F)(F)F)ccc4c3=O)c21 (mixture of isomers) : CC50 at 4 days is > 10 µM

What the record says about Cn1nc(NS(C)(=O)=O)c2c(Cl)ccc(-n3c([C@H](Cc4cc(F)cc(F)c4)NC(=O)Cn4nc(C(F)F)c5c4C(F)(F)[C@@H]4C[C@H]54)nc4cc(F)ccc4c3=O)c21 : CC50 at 4 days is > 10 µM

What the record says about COc1ccc(-n2c([C@H](Cc3cc(F)cc(F)c3)NC(=O)Cc3c[nH]c4ccc(O)cc34)nc3ccccc3c2=O)cc1 : CC50 at 4 days is > 10 µM

What the record says about COc1ccc(-n2c([C@H](Cc3cc(F)cc(F)c3)NC(=O)Cn3nc(C(F)F)c4c3C(F)(F)[C@@H]3C[C@H]43)nc3ncccc3c2=O)cc1 : CC50 at 4 days is 8.1 µM

What the record says about O=C(Cn1nc(C(F)F)c2c1C(F)(F)[C@@H]1C[C@H]21)NC(Cc1cc(F)cc(F)c1)c1nc2cn[nH]c2cc1-c1ccc(OC(F)F)cc1 (single isomer, unassigned) : CC50 at 4 days is 6.8 µM

What the record says about Cn1nc(NS(C)(=O)=O)c2c(Cl)ccc(-n3c([C@H](Cc4cc(F)cc(F)c4)NC(=O)Cn4nc(C(F)F)c5c4C(F)(F)[C@@H]4C[C@H]54)nc4cccc(F)c4c3=O)c21 (single isomer, unassigned) : CC50 at 4 days is > 8 µM

What the record says about Cn1nc(NS(C)(=O)=O)c2c(Cl)ccc(-c3cc4cn[nH]c4nc3C(Cc3cc(F)cc(F)c3)NC(=O)Cn3nc(C(F)F)c4c3C(F)(F)[C@@H]3C[C@H]43)c21 (single isomer, unassigned) : CC50 at 4 days is > 10 µM

What the record says about O=C(Cn1nc(C(F)F)c2c1C(F)(F)[C@@H]1C[C@H]21)N[C@@H](Cc1cc(F)cc(F)c1)c1nc2cn[nH]c2cc1-c1ccc(Cl)c(C(=O)O)c1 : CC50 at 4 days is > 10 µM
